Target: recombinant firefly luciferase (Photinus pyralis)
Sequence (P08659 whole entry): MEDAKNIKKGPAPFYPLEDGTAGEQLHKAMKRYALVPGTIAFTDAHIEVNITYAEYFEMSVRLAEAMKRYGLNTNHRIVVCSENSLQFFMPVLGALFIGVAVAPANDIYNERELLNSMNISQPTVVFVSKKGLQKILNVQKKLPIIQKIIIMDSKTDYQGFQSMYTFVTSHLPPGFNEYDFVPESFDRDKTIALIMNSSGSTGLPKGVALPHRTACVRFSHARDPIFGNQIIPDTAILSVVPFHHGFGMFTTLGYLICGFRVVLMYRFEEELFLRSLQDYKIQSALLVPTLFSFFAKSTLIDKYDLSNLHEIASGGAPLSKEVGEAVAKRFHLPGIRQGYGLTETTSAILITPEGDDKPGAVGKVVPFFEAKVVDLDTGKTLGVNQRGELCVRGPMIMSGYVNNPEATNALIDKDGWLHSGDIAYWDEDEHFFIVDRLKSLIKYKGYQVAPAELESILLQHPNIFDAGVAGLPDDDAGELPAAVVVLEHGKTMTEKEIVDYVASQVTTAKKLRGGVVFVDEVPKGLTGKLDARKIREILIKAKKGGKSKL
Test: biochemical
Conditions: dose response, maximum inhibition; read-out: rLuc inhibition dose response: Maximum inhibition (%)
Classes by Emax: 1 = under 10%, 2 = from 10% up to 30%, 3 = 30% and over

Prompt line: Classify this compound: CCS(=O)(=O)N1[CH]Cc2ccc(NC(=O)Nc3cccc(C#N)c3)cc21
Response line: 1

Prompt line: Hi there! Could you help me figure out the category for Cc1cc(C(=O)N2CCN(c3nc4c(C(C)C)cccc4s3)CC2)on1 please?
Response line: 2

Prompt line: Where would Cc1ncc(C(=O)NC2CCN(CCOc3ccc(Br)cc3)CC2)s1 land among the classes by reported Emax?
Response line: 3

Prompt line: Into which bin does this compound go? CNC(=O)CCC(=O)N1CCOC(c2ccc3cc(OC)ccc3c2)C1 (stereo not drawn)
Response line: 3

Prompt line: Just checking, what class would you give COc1ccc(-c2cc(CNc3ncnc4c3CCNCC4)no2)cc1 here?
Response line: 1

Prompt line: Which band does Cc1[nH]/c(=N\C(=O)c2csc(NCC(C)C)n2)sc1C fall in?
Response line: 3

Prompt line: Hi, small favor: classify CC(C)CN1CCCC1c1ccc(C(=O)Nc2cccnc2)s1 (stereo not drawn) by its Emax when you get a moment.
Response line: 3

Prompt line: Each compound maps to one class by Emax. Which class for CCOc1ccc(CN2CCCC(c3cc4ncccc4[nH]3)C2)cc1 (stereo not drawn) ?
Response line: 2

Prompt line: Band of COc1cccc(CNc2cc(C)nc(-c3ccncc3)n2)c1OC ?
Response line: 2

Prompt line: Determine which band this compound sits in: COc1cccc(-c2noc3c2CN(c2ncnc4c2CCC4)CC3)c1
Response line: 2

Prompt line: Category of CC(Nc1ncnc2c1CCNC2)c1ccc2c(c1)CCCC2 (stereo not drawn) :
Response line: 2

Prompt line: GET /class?item= COCCCNC1N=C(n2nc(C)cc2C)Nc2sc3c(c21)CCCC3 (stereo not drawn)
Response line: 2

Prompt line: Which Emax category applies to COc1ccc2cc(C3CN(C(=O)CCNC(C)=O)CCO3)ccc2c1 (stereo not drawn) here?
Response line: 3

Prompt line: Please let me know in which category the item Clc1ccccc1-c1cc(CNc2ncnc3c2CCNCC3)no1 belongs.
Response line: 2

Prompt line: GET /class?item= CCS(=O)(=O)N1CCc2ccc(NC(=O)Nc3cccc(C)c3)cc21
Response line: 3

Prompt line: Pick a category. Item: COCc1noc(-c2ccc(N3CCCCC3CO)nc2)n1 (stereo not drawn)
Response line: 3

Prompt line: Where would CCOC(=O)N1CCN(c2nc(CCN)nc3sc(C)c(C)c23)CC1 land among the classes by reported Emax?
Response line: 1

Prompt line: Category lookup for the compound COc1cc(CN(C)C(=O)Cc2c(C)nn(C)c2C)ccc1OC(F)F
Response line: 1

Prompt line: Would you mind sorting CCc1c(C)nc(-n2nc(C3CC3)cc2NC(C)=O)[nH]c1=O into the appropriate category?
Response line: 2

Prompt line: Which Emax category applies to CC1(c2ccccc2)CCCN(Cc2cncn2C2CCCC2)C1 (stereo not drawn) here?
Response line: 1

Prompt line: Band for the recorded Emax of COc1cccc(CN2CCN(c3ccc4nncn4n3)C(C)C2)c1 (stereo not drawn) ?
Response line: 1

Prompt line: // bin(item) where item = Cc1[nH]/c(=N\C(=O)c2csc(NC3CCCC3)n2)sc1C
Response line: 3

Prompt line: Which bin, given its Emax, does Cc1cc(C(=O)N2CCN(c3nc4c(C(C)C)cccc4s3)CC2)no1 occupy?
Response line: 3

Prompt line: Form: Item = Cc1ccc(Sc2ccc(CN3CCC4(CCCNC4=O)C3)o2)cc1 (stereo not drawn) ; Class = ?
Response line: 2

Prompt line: Classify this compound: CC(=O)Nc1ccc(-n2ccc3nc(N4CCCC4)ncc3c2=O)cc1
Response line: 1

Prompt line: Bin this entry: CC(C)c1cc(=O)[nH]c(-n2nc(C3CC3)cc2N)n1
Response line: 1
